- assayName: MM1S cell viability effects, profiling panel, calcein-AM fluorescence, 48 h, basal (AID 1165);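 note: viability of MM1S multiple myeloma cells under basal unstimulated conditions; test concentration not given here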
- setupConditions: higher = more signal
The label depends only on z-score: t if it is at least -0.4, f if it is smaller.

[[record]]
compound = "C=CCN1C(=O)[C@]2(O[C@H](CCO)[C@@H]([Si](C)(C)c3ccc(OC)cc3)[C@@H]2C)c2cc(N3C(=O)c4cccc5cccc3c45)ccc21"
labelvalue = "f"

[[record]]
compound = "COC(=O)[C@@]1(Cc2ccc(OC)cc2)[C@H]2c3cc(C(=O)N(C)C)n(Cc4cccc5ccccc45)c3C[C@H]2CN1C(=O)c1ccccc1"
labelvalue = "f"

[[record]]
compound = "COc1ccc([Si](C)(C)[C@H]2[C@H](CC(=O)N3CCC[C@H]3CO)O[C@@]3(C(=O)N(Cc4cccc(N5C(=O)c6cccc7cccc5c67)c4)c4ccccc43)[C@@H]2C)cc1"
labelvalue = "f"

[[record]]
compound = "C=CCC(OC(C)=O)[C@@H]1[C@@H](N(Cc2ccc(-c3cccc(C(F)(F)F)c3)o2)C(=O)c2ccc(-c3ccccc3)cc2)c2cc(OCCCO)ccc2N1C(=O)c1ccc(-c2ccccc2)cc1 (some centres not stated)"
labelvalue = "t"

[[record]]
compound = "O=C1NC(=O)C2C1C=CC(C(O)c1cccc3ccccc13)N2Nc1ccccn1 (configuration not stated)"
labelvalue = "t"

[[record]]
compound = "COC(=O)[C@@]1(Cc2ccc(OC)cc2)[C@H]2c3cc(C(=O)N4CCCC4)n(Cc4ccc(OC)c(OC)c4)c3C[C@H]2CN1C(=O)c1ccccc1"
labelvalue = "t"


###

- assayName: small-molecule microarray binders of probe aShh, primary screen, biochemical, biotinylated probe, 635/667 nm fluorescence (AID 1114);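 note: probe is biotin-labelled aShh protein from a stem cell growth factor screen; measures binding of labelled protein to compounds printed on the slide; score merges feature fluorescence at 667 nm with signal-to-noise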
- setupConditions: higher = more signal
The label depends only on composite z-score: 1 if it is at least -0.004, 0 if it is smaller.

[[record]]
compound = "O=C1C2C=CC(C(O)C3CCCCC3)N(Nc3ccc([N+](=O)[O-])cc3)C2C(=O)N1c1ccccc1 (configuration not stated)"
labelvalue = 1

[[record]]
compound = "O=C1O[C@H](c2ccccc2)[C@H](c2ccccc2)N2[C@H]1[C@@H](C(=O)NC[C@H](O)c1ccccc1)[C@]1(C(=O)Nc3ccccc31)[C@H]2c1ccc(OCCO)cc1"
labelvalue = 0

[[record]]
compound = "COc1ccc([C@H]2OC[C@@H]3CC4(CC=CC4)C(=O)N32)cc1"
labelvalue = 0

[[record]]
compound = "C[N+](C)(C)CCCCNC(=O)[C@H]1C[C@H]2C(=O)N[C@@H](Cc3ccccc3)C(=O)N2[C@H]1c1ccc(O)cc1"
labelvalue = 1

[[record]]
compound = "CCOC1=C2C(CN(S(=O)(=O)c3ccc(C)cc3)C2c2ccc(C)cc2)C2C(=O)N(c3ccccc3)C(=O)C2C1 (configuration not stated)"
labelvalue = 1

[[record]]
compound = "NC(=O)[C@@H]1[C@H]2C(=O)O[C@H](c3ccccc3)[C@H](c3ccccc3)N2[C@H](c2ccc(O)cc2)[C@@]12C(=O)Nc1ccc(C#CC3(O)CCCCCC3)cc12"
labelvalue = 1

[[record]]
compound = "C=CC[C@]1(C(=O)NCCCOC)N=C(c2ccc(OCCCO)cc2)O[C@H]1c1ccccc1N=[N+]=[N-]"
labelvalue = 1


###

- assayName: small-molecule binders of probe aLefty1, primary screen, biochemical, small-molecule microarray, 635/667 nm fluorescence (AID 1153);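 note: score merges spot fluorescence with signal-to-noise ratio from the scanned slide images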
- setupConditions: higher = more signal
The label depends only on composite z-score: condition met if it is at least 0.2, condition not met if it is smaller.

[[record]]
molecule = "CCCCN1CC=CC23O[C@@H]4/C=C\\CCC(C)OC(=O)C4[C@H]2C(=O)N(CCCCCO)[C@@H]3C1=O (some centres not stated)"
labelvalue = "condition not met"

[[record]]
molecule = "[N-]=[N+]=Nc1ccccc1C[C@]1(C(N)=O)N=C(c2ccc(OCCCO)cc2)O[C@H]1c1ccccc1"
labelvalue = "condition met"

[[record]]
molecule = "CC(C)(C)OC(=O)CC[C@@]1(C(=O)NCC(O)CO)N=C(c2ccc(OCCCO)cc2)O[C@@H]1c1ccccc1N=[N+]=[N-] (some centres not stated)"
labelvalue = "condition met"

[[record]]
molecule = "CN1C(=O)C2C=CC(C(O)c3cc(C(F)(F)F)cc(C(F)(F)F)c3)N(N3CCCCC3)C2C1=O (configuration not stated)"
labelvalue = "condition met"

[[record]]
molecule = "C=CCNC(=O)[C@@H]1[C@H]2C(=O)O[C@H](c3ccccc3)[C@H](c3ccccc3)N2[C@H](c2ccccc2OCCO)[C@@]12C(=O)N(C(=O)OCCOC)c1ccc(C#CCNC(N)=O)cc12"
labelvalue = "condition met"

[[record]]
molecule = "CN1C(=O)C2C=CC(C(O)C3CCCCC3)N(Nc3ccc([N+](=O)[O-])cc3[N+](=O)[O-])C2C1=O (configuration not stated)"
labelvalue = "condition not met"


###

- assayName: small-molecule microarray binders of probe aEGFR, primary screen, biochemical, biotinylated probe, 635/667 nm fluorescence (AID 1097);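 note: probe is a biotinylated anti-EGFR antibody binding compounds printed on slides; score combines fluorescence near 667 nm and signal to noise of each spot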
- setupConditions: higher = more signal
measuredParameter: composite z-score

[[record]]
compound = "COC(=O)[C@@]1(Cc2ccc(OC)cc2)[C@H]2c3cc(C(=O)N(C)C)n(CCN4CNCC4=O)c3C[C@H]2CN1C(=O)c1ccccc1"
measuredparameter = "composite z-score"
reportedresult = 0.107

[[record]]
compound = "Cc1ccc(C(C)CC(O)C2C=CC3C(=O)N(c4ccccc4)C(=O)C3N2Nc2ccc([N+](=O)[O-])cc2)o1 (stereo not drawn)"
measuredparameter = "composite z-score"
reportedresult = 0.0807

[[record]]
compound = "CCOC(=O)[C@H]1CC=C2CC1C(=O)N1CCC[C@@H]1[C@@H]2O[Si](C)(C)C(C)(C)C (stereo partly drawn)"
measuredparameter = "composite z-score"
reportedresult = -0.265

[[record]]
compound = "COc1ccc(CCNC(=O)[C@@]2(C)c3ccccc3C(=O)N(Cc3cc(F)cc(C(F)(F)F)c3)[C@H]2c2ccc(CO)cc2)cc1"
measuredparameter = "composite z-score"
reportedresult = -0.0549

[[record]]
compound = "CN(C)CCCNC(=O)[C@@]1(c2ccc([N+](=O)[O-])cc2)CC(=O)N(C2CCCCC2)[C@@H]1c1ccc(CO)cc1I"
measuredparameter = "composite z-score"
reportedresult = -0.0679

[[record]]
compound = "O=C1c2ccccc2[C@](Cc2ccccc2I)(C(=O)NC2CC2)[C@H](c2ccc(CO)cc2)N1Cc1ccccc1"
measuredparameter = "composite z-score"
reportedresult = -0.0681

[[record]]
compound = "CC1CC/C=C\\[C@H]2OC34C=CCN(C(C)(C)C)C(=O)[C@H]3N(CCCCCCO)C(=O)[C@@H]4C2C(=O)O1 (stereo partly drawn)"
measuredparameter = "composite z-score"
reportedresult = -0.371

[[record]]
compound = "O=C(c1ccccc1)N1Cc2ccccc2[C@@H]2OC(c3ccc(OCCCO)cc3)=N[C@]2(Cc2ccccc2)C1=O"
measuredparameter = "composite z-score"
reportedresult = -0.0187

[[record]]
compound = "CN1C(=O)C2C=CC(C(O)C3CCCCC3)N(Nc3ccc([N+](=O)[O-])cc3[N+](=O)[O-])C2C1=O (stereo not drawn)"
measuredparameter = "composite z-score"
reportedresult = 0.0624

[[record]]
compound = "COc1ccc(CCNC(=O)[C@@H]2c3ccccc3C(=O)N(C3Cc4ccccc4C3)[C@H]2c2ccc(CO)cc2)cc1"
measuredparameter = "composite z-score"
reportedresult = -0.0624

[[record]]
compound = "C=CCNC(=O)[C@H]1[C@@H]2C(=O)O[C@@H](c3ccccc3)[C@@H](c3ccccc3)N2[C@@H](c2ccc(O)cc2)[C@]12C(=O)N(C(=O)OCCOC)c1ccc(C#CCNC(N)=O)cc12"
measuredparameter = "composite z-score"
reportedresult = 0.0821

[[record]]
compound = "CCCCCC1=C2CNC(CCC)(C(=O)OC)C=C2C(C)C1=O (stereo not drawn)"
measuredparameter = "composite z-score"
reportedresult = 0.189

[[record]]
compound = "CCCCC=C[C@@H](NC(=O)Oc1cccc(C(F)(F)F)c1)c1ccccc1"
measuredparameter = "composite z-score"
reportedresult = 0.4

[[record]]
compound = "C=CCC(OC(C)=O)[C@@H]1[C@@H](N(Cc2ccc(-c3ccccc3)cc2)C(=O)Cc2ccc(F)cc2)c2cc(OCCCO)ccc2N1C(=O)c1ccc(-c2ccccc2)cc1 (stereo partly drawn)"
measuredparameter = "composite z-score"
reportedresult = -0.0372

[[record]]
compound = "C=CCOC(=O)[C@H]1[C@@H]2C(=O)O[C@@H](c3ccccc3)[C@@H](c3ccccc3)N2[C@@H](c2ccc(OCCOC(=O)[C@H]3C[C@H]4C(=O)N[C@@H](CC(C)C)C(=O)N4[C@H]3c3ccc(O)cc3)cc2)[C@]12C(=O)Nc1ccc(I)cc12"
measuredparameter = "composite z-score"
reportedresult = 0.0423

[[record]]
compound = "CC(C)C[C@@H]1NC(=O)[C@H]2C[C@@H](C(=O)NCCCCCCN(C)C)[C@@H](c3ccc(O)cc3)N2C1=O"
measuredparameter = "composite z-score"
reportedresult = 0.122

[[record]]
compound = "O=C1O[C@H](c2ccccc2)[C@H](c2ccccc2)N2[C@H]1[C@@H](C(=O)O)[C@]1(C(=O)Nc3ccc(C#CC4=CCCCC4)cc31)[C@H]2c1ccccc1OCCO"
measuredparameter = "composite z-score"
reportedresult = -0.313

[[record]]
compound = "C=CCC(OC(C)=O)[C@@H]1[C@@H](N(Cc2ccc(-c3cccc(C(F)(F)F)c3)o2)C(=O)Cc2ccc(F)cc2)c2cc(OCCCO)ccc2N1C(=O)Cc1ccc(OC)cc1 (stereo partly drawn)"
measuredparameter = "composite z-score"
reportedresult = -0.195

[[record]]
compound = "C=C(CCCC)C(=O)CC[C@@H](OC(=O)c1cccnc1)c1ccc(CO)o1"
measuredparameter = "composite z-score"
reportedresult = 0.021

[[record]]
compound = "O=C1OCC=C[C@H]2OC34C=CCN(c5ccc6ccccc6c5)C(=O)[C@H]3N(CCCCCCO)C(=O)[C@@H]4[C@@H]12 (stereo partly drawn)"
measuredparameter = "composite z-score"
reportedresult = -0.256

[[record]]
compound = "COC(=O)[C@@]1(Cc2ccc(OC)cc2)[C@H]2c3cc(C(=O)N4CCCC4)n(Cc4ccccc4)c3C[C@H]2CN1C(=O)c1ccccc1"
measuredparameter = "composite z-score"
reportedresult = 1.25

[[record]]
compound = "CC(C)OC(=O)C=C1C[C@@H](c2ccccc2C(F)(F)F)O[C@@H](c2ccccc2C(F)(F)F)O1"
measuredparameter = "composite z-score"
reportedresult = -0.0776

[[record]]
compound = "COc1ccc([Si](C)(C)[C@@H]2[C@@H](CCO)O[C@]3(C(=O)N(Cc4ccc(N5C(=O)COc6ccccc65)cc4)c4ccccc43)[C@H]2C)cc1"
measuredparameter = "composite z-score"
reportedresult = 0.0192

[[record]]
compound = "C#CCNC(=O)[C@H](Cc1ccccc1)NC(=O)CCC(=O)O"
measuredparameter = "composite z-score"
reportedresult = -0.238

[[record]]
compound = "CCOC(=O)C[C@H]1[C@H](OC(=O)c2ccc(C(=O)c3ccccc3)cc2)[C@@H](NC(=O)c2ccc(-c3ccccc3)cc2)c2cc(OCCCO)ccc2N1C(=O)c1ccccc1"
measuredparameter = "composite z-score"
reportedresult = 0.0911

[[record]]
compound = "CCOC(=O)[C@H]1C/C=C/C[C@H](C(=O)OCC)C(=O)O[C@H]2[C@@H](OC)O[C@H](CO)[C@@H](OC(=O)Nc3ccc(C#N)cc3)[C@@H]2OC1=O"
measuredparameter = "composite z-score"
reportedresult = -0.382

[[record]]
compound = "CC1CC/C=C\\[C@H]2OC34C=CCN(c5ccc(Cl)cc5)C(=O)[C@H]3N(CCO)C(=O)[C@]4(C)C2C(=O)O1 (stereo partly drawn)"
measuredparameter = "composite z-score"
reportedresult = -0.166

[[record]]
compound = "O=C1C[C@]2(c3ccc([N+](=O)[O-])cc3)C(=O)N(CCN3CCOCC3)c3cc(CO)ccc3[C@H]2N1C1CCCCC1"
measuredparameter = "composite z-score"
reportedresult = -0.112

